I'd be grateful if you could share measured pIC50 for these entries.
# Study system: isomerase (Bos taurus)
# Construct: Purified RPE microsomes were the source of the enzymes
# Sequence (Q28175 2-533 limits assumed): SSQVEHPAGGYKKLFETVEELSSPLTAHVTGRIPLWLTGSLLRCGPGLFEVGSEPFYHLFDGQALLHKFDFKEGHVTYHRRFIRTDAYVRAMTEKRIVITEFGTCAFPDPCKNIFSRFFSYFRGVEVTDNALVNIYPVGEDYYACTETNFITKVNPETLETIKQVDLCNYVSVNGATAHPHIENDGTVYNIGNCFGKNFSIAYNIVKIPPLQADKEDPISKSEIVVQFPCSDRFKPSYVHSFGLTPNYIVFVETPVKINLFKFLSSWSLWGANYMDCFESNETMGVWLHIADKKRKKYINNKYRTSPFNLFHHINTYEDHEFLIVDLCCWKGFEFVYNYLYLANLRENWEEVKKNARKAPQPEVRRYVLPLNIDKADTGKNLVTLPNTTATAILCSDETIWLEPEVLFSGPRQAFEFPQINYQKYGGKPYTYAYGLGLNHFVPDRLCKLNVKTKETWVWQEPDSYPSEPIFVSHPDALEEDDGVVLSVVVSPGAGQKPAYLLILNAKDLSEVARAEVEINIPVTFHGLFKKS
# Test protocol: isomerase reaction: 11-cis-retinol production by RPE microsomes from all-trans-retinol
# Experimental setup: RPE microsomes, all-trans-retinol substrate; read-out: IC50, inhibition of 11-cis-retinol production
Scale explanation: pIC50 corresponds to minus log10 of a concentration expressed in moles per litre.

*Q* Provide the documented pIC50 with isomerase (Bos taurus) as the system for CC(C=CC1=C(C)CCCC1(C)C)=CC=CC(C)=CCN (single isomer, unassigned) [11-cis-Ret-NH2, 11-cis-retinylamine]
*A* 7.15

*Q* Provide the documented pIC50 with isomerase (Bos taurus) as the system for CC1=C(/C=C/C(C)=C/C=C/C(C)=C/CN)C(C)(C)CCC1 [all-trans-Ret-NH2, all-trans-retinylamine]
*A* 6.30

*Q* Provide the documented pIC50 with isomerase (Bos taurus) as the system for CC(C=CC1=C(C)CCCC1(C)C)=CC=CC(C)=CCN (single isomer, unassigned) [13-cis-Ret-NH2, 13-cis-retinylamine]
*A* 6.14

*Q* Provide the documented pIC50 with isomerase (Bos taurus) as the system for CC(C=CC1=C(C)CCCC1(C)C)=CC=CC(C)=CCN (single isomer, unassigned) [9-cis-Ret-NH2, 9-cis-retinylamine]
*A* 6.19

# credit: patent US20080275134A1
